Target: human NOX1 (hNOX1) (Homo sapiens)
Construct: pLV-CMV-hNOX1-puro (NM_007052.5)
Sequence (Q9Y5S8 1-564): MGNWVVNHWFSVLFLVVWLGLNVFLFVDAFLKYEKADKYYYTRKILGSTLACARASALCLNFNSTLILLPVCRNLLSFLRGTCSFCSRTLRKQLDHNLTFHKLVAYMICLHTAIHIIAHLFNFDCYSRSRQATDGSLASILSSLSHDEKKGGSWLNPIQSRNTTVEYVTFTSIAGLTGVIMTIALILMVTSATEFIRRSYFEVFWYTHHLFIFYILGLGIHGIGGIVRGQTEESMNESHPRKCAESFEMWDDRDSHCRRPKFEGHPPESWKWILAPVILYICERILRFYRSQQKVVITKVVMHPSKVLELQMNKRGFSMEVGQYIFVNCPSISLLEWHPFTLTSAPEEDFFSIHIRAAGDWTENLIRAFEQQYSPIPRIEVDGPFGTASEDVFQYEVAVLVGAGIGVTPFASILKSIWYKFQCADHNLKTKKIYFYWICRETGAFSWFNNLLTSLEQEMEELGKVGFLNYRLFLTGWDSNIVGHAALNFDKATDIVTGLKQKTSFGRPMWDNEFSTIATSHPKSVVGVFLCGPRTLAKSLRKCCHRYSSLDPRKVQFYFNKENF
Sequence (P13498 2-195 partner limits assumed): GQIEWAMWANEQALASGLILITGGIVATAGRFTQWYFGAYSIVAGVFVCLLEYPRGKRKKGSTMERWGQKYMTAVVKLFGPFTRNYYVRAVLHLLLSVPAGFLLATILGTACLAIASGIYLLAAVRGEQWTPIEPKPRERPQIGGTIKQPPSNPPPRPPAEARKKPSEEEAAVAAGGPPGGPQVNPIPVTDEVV
Assay: NOX1 inhibition assay (L-012), HEK293 cells stably overexpressing human NOX1
Conditions: HEK293-hNOX1, PMA stimulated
pIC50: −log10 of the molar value.
PARAMETER_MEASURED: pIC50

Here are 5 compounds together with their reported answers.
O=c1c2scnc2nc(SCc2c(F)cc(F)cc2F)n1-c1ccc(O)cc1F :: 5.64
O=c1c2scnc2nc(SCc2c(F)cc(F)cc2F)n1-c1ccc(O)c(F)c1F :: 5.54
O=c1c2scnc2nc(SCc2ccc(F)cc2)n1-c1ccc(O)nc1 :: 4.42
O=c1c2scnc2nc(SCc2c(F)cc(F)cc2F)n1-c1cnc(O)nc1 :: 4.68
O=c1c2scnc2nc(SCc2c(F)cc(F)cc2F)n1-c1cc(F)c(O)cn1 :: 5.15

(P) O=c1c2scnc2nc(SCc2ccc(F)cc2Br)n1-c1cnc(O)c(F)c1
(Q) O=c1c2scnc2nc(SCc2ccc(C(F)(F)F)cc2F)n1-c1cnc(O)c(F)c1
Between these two entries, P and Q , state which has the higher pIC50. Refer to your chosen item by its label in the answer.
Q

(P) O=c1c2scnc2nc(SCc2c(F)cc(F)cc2F)n1-c1ccc(O)cn1
(Q) O=c1c2scnc2nc(SCc2ccc(Cl)cc2)n1-c1cnc(O)nc1
Please indicate which entry, P or Q , has the lower recorded pIC50 value. Field: selected label. Fill in the label of the entry you choose.
P
(P: 4.77, Q: 5.57)

(1) N#Cc1cc(-n2c(SCc3c(F)cc(F)cc3F)nc3ncsc3c2=O)cnc1O
(2) O=c1c2scnc2nc(SCc2ccc(C(F)(F)F)cc2Cl)n1-c1cnc(O)c(F)c1
Which gives the smaller pIC50 number: 1 or 2 ? Your answer should be the label attached to the chosen record.
2
(2: 4.32, 1: 5.31)

----------
Recorded pIC50, one value per entry.
Target: human NOX5 (hNOX5) (Homo sapiens)
Sequence (Q96PH1 whole entry): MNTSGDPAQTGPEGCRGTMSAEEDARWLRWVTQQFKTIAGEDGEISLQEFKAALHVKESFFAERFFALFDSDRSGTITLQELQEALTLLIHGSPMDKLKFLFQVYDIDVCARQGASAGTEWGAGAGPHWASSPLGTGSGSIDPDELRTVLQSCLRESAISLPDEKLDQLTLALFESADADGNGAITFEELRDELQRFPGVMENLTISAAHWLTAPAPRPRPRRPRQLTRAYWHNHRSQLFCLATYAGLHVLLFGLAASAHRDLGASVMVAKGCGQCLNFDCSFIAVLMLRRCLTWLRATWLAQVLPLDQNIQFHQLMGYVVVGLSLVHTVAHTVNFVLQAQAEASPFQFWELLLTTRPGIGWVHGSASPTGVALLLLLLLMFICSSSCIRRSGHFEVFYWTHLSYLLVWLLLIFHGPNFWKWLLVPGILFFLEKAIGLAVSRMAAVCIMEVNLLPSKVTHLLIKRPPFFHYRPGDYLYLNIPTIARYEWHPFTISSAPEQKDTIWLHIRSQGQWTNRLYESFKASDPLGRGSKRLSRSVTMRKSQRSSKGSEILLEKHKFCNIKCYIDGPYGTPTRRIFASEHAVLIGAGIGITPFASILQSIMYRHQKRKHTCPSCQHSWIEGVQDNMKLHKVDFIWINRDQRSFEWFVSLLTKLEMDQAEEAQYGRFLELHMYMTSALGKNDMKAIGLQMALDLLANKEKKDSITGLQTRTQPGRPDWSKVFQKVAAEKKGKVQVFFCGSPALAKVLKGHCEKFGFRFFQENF
Test: NOX5 inhibition assay (L-012), HEK293 cells stably overexpressing human NOX5
Settings: HEK293-hNOX5, PMA stimulated
pIC50: −log10 of the molar value.

As a guide, the following entries are already answered.
O=c1c2scnc2nc(SCc2ccc(Cl)cc2F)n1-c1cnc(O)nc1 :: < 4.00
O=c1c2scnc2nc(SCc2c(F)cc(F)cc2F)n1-c1cnc(O)nc1 :: < 4.00
O=c1c2scnc2nc(SCc2c(F)cc(F)cc2F)n1-c1ccc(O)cc1 :: 4.23
Cc1cc(Cl)ccc1CSc1nc2ncsc2c(=O)n1-c1ccc(O)nc1 :: < 4.00
O=c1c2scnc2nc(SCc2c(F)cc(F)cc2Cl)n1-c1cnc(O)c(F)c1 :: 4.45

Data request, read-out pIC50, for `N#Cc1cc(-n2c(SCc3c(F)cc(F)cc3F)nc3ncsc3c2=O)cnc1O`
< 4.00

Give its pIC50 value. Item: `O=c1c2scnc2nc(SCc2ccc(C(F)(F)F)cc2)n1-c1cnc(O)nc1`
< 4.00

Please report the recorded pIC50 for `O=c1c2scnc2nc(SCc2c(F)cc(F)cc2F)n1-c1cnc(O)c(F)c1` .
< 4.00

Entry under review: `O=c1c2scnc2nc(SCc2ccc(Br)cc2F)n1-c1cnc(O)c(F)c1` . Reported pIC50?
4.33

----------
Target: human NOX3 (hNOX3) (Homo sapiens)
Construct: pLV-CMV-hNOX3-puro (NM_015718.3)
Sequence (Q9HBY0 whole entry, one chain of several): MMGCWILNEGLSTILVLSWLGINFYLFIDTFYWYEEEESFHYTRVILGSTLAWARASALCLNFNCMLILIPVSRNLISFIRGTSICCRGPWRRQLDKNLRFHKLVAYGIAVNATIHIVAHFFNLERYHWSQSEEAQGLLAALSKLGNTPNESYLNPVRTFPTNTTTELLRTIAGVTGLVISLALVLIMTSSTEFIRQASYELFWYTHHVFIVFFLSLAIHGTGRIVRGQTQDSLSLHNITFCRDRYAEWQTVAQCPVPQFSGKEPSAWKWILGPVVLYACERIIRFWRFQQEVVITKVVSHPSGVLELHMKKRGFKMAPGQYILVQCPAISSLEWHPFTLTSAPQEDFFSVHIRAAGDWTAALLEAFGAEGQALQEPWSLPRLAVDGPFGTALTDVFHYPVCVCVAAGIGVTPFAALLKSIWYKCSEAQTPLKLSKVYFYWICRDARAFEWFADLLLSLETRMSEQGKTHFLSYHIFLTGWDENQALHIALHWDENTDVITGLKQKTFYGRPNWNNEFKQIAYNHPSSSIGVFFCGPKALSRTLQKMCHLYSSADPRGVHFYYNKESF
Experiment: NOX3 inhibition assay (L-012), HEK293 cells stably overexpressing human NOX3
Details: HEK293-hNOX3, PMA stimulated
PARAMETER_MEASURED: IC50 (µM)

Solved cases (5 shown):
Cc1cc(F)ccc1CSc1nc2ncsc2c(=O)n1-c1cnc(O)c(F)c1 [Example 36] :: 87.9
O=c1c2scnc2nc(SCc2ccc(C(F)(F)F)cc2F)n1-c1cnc(O)c(F)c1 [Example 42] :: 46.4
O=c1c2scnc2nc(SCc2ccc(Cl)cc2Cl)n1-c1cnc(O)c(F)c1 [Example 39] :: 56.2
Cc1cc(F)cc(C)c1CSc1nc2ncsc2c(=O)n1-c1cc(F)c(O)c(F)c1 [Example 4] :: 4.1
O=c1c2scnc2nc(SCc2c(F)cc(F)cc2F)n1-c1cc(F)c(O)c(F)c1 [Example 8] :: 2.7

(I) O=c1c2scnc2nc(SCc2ccc(Cl)cc2F)n1-c1ccc(O)nn1 [Example 61]
(II) O=c1c2scnc2nc(SCc2c(F)cc(F)cc2F)n1-c1ccc(O)c(F)c1F [Example 12]
Between I and II , which one shows the larger IC50 value? Select an item and report its label.
I
(I: 28.2 µM, II: 7.6 µM)

(I) O=c1c2scnc2nc(SCc2ccc(F)cc2)n1-c1ccc(O)nc1 [Example 30]
(II) O=c1c2scnc2nc(SCc2ccc(Br)cc2F)n1-c1cnc(O)c(F)c1 [Example 34]
(III) N#Cc1cc(-n2c(SCc3c(F)cc(F)cc3F)nc3ncsc3c2=O)cnc1O [Example 47]
Sort the 3 compounds by IC50; largest first, smallest last. Form field (ranking): labels in requested order.
I, II, III

(P) O=c1c2scnc2nc(SCc2c(F)cc(F)cc2F)n1-c1cnc(O)cn1 [Example 69]
(Q) Cc1cc(Cl)ccc1CSc1nc2ncsc2c(=O)n1-c1cnc(O)nc1 [Example 54]
Between the two listed entries P and Q , which has its IC50 at the higher number? Answer with the label corresponding to your selection.
P
(P: 77.5 µM, Q: 49.4 µM)

(A) O=c1c2scnc2nc(SCc2c(F)cc(F)cc2F)n1-c1ccc(O)cc1Cl [Example 17]
(B) O=c1c2scnc2nc(SCc2c(F)cc(F)cc2F)n1-c1cnc(O)c(F)c1F [Example 52]
In the pair A and B , the larger recorded IC50 belongs to which? API: response body contains the label of the selected item.
A

(1) O=c1c2scnc2nc(SCc2c(F)cc(F)cc2F)n1-c1ccc(O)c(Cl)c1 [Example 16]
(2) O=c1c2scnc2nc(SCc2c(F)cc(F)cc2F)n1-c1ccc(O)c(F)c1 [Example 11]
Of the pair 1 and 2 , name the member with the lesser recorded IC50. Lab log: write the label of the selected item as the result.
2

----------
Target: NOX2 (Homo sapiens)
Construct: endogenous in cells
Sequence (P04839 2-570 limits assumed, one chain of several): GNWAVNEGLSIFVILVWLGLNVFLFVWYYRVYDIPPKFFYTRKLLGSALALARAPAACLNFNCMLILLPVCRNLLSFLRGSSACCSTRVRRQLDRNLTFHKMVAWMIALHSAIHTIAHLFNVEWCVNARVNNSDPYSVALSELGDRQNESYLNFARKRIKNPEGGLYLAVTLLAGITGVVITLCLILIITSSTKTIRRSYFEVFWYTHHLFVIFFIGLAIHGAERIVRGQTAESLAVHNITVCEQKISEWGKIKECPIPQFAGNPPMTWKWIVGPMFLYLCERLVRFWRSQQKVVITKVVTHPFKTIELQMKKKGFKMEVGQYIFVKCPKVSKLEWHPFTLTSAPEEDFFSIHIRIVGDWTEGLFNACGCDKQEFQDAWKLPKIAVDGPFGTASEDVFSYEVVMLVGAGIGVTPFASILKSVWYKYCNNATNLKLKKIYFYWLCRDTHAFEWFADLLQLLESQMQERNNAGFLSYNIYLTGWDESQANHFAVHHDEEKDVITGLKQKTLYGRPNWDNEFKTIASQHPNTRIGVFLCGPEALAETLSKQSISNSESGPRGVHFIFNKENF
Assay: NOX2 inhibition assay (L-012), human blood-derived granulocytes
Details: fMLP/PMA stimulated
PARAMETER_MEASURED: IC50

Example entries and their recorded answers appear below.
Cc1cc(Cl)ccc1CSc1nc2ncsc2c(=O)n1-c1cnc(O)c(F)c1 :: > 100 µM
Cc1cc(F)cc(C)c1CSc1nc2ncsc2c(=O)n1-c1cc(F)c(O)c(F)c1 :: > 100 µM
O=c1c2scnc2nc(SCc2c(F)cc(F)cc2F)n1-c1cnc(O)nc1 :: > 100 µM
Cc1cc(F)cc(C)c1CSc1nc2ncsc2c(=O)n1-c1cnc(O)nc1 :: > 100 µM
O=c1c2scnc2nc(SCc2ccc(Cl)cc2F)n1-c1ccc(O)nc1 :: > 30 µM

// fetch NOX2 (Homo sapiens) IC50 for `O=c1c2scnc2nc(SCc2ccc(Cl)cc2F)n1-c1cnc(O)c(F)c1`
> 100 µM

IC50 of `O=c1c2scnc2nc(SCc2c(F)cc(F)cc2F)n1-c1ccc(O)cc1` on NOX2 (Homo sapiens)?
10.3 µM

Checklist item: IC50 tested on NOX2 (Homo sapiens), entry `Cc1cc(Cl)ccc1CSc1nc2ncsc2c(=O)n1-c1ccc(O)nc1` , value?
> 100 µM

What value of IC50 on NOX2 (Homo sapiens) does `O=c1c2scnc2nc(SCc2ccc(Cl)cc2)n1-c1ccc(O)nc1` have?
> 100 µM
